Values were extracted from PubChem BioAssay AID2314.

# methodDescription: Cycloheximide Counterscreen for Small Molecule Inhibitors of Shiga Toxin; also: read at 38.3 µM for the half of the compounds with a filed dose
# recordedConditions: cell reporter, cycloheximide protein synthesis inhibition counterscreen
About 37,000 (12%) of roughly 300,000 compounds were called active. Rule as the data show it: active = max response mostly above about 13% (no sharp cut-off); inactive = mostly below about 14%. The sample as a whole holds a higher share of actives than the screen did.
Possible outcomes: active, inactive

1) O=C(Nc1c2c(nn1-c1cccc(Cl)c1)CS(=O)(=O)C2)c1cccs1
inactive
2) CCn1c(=N)c(C(=O)NCCCOC)cc2c(=O)n3cccc(C)c3nc21
inactive
3) CCc1ccc(NC(=O)CN2C(=O)CSC2=O)cc1
active
4) COC(=O)c1ccc(-n2cnc3ccccc32)nc1
active
5) COc1ccc(C/C(C)=N/NC(=O)c2ccncc2)cc1
inactive
6) Cc1nc2nc(SCC(=O)Nc3cccc(F)c3)[nH]c2cc1Br
inactive
7) COC(=O)/C(NC(C)=O)=C(\C)c1ccc(Cl)cc1
inactive
8) CCc1ccc(NC(=O)CN2C(=O)COc3ccc(S(=O)(=O)N4CCCC4)cc32)cc1
inactive
9) CCN(CC)CCCNC(=O)CCn1nc(-c2ccc(Cl)cc2)ccc1=O
inactive
10) Cc1cccn2c(=O)c3cc(C(=O)NC4CCCCC4)sc3nc12
inactive
11) Cc1cc(-c2ccc(C)c(S(=O)(=O)NC(C)Cc3ccco3)c2)on1 (stereo not given)
inactive
12) Cn1c(C(=O)OC(C(=O)NC2CCCCC2)c2ccccn2)cc2sccc21 (stereo not given)
inactive
13) CCOC(=O)C1C(c2ccc(O)cc2)NC(=O)NC1(O)C(F)(F)F (stereo not given)
inactive
14) CC(=O)Nc1ccc(S(=O)(=O)N2CCC(C(=O)N[C@@H](Cc3ccccc3)C(=O)O)CC2)cc1
inactive
15) CCNc1nc(NC(C)C)nc(N2CC(=O)N(CC(=O)OCC)C2=N)n1
inactive
16) C=CCNC(=O)COc1coc(CN2CCN(Cc3ccccc3)CC2)cc1=O
inactive
17) CC(=O)c1ccc(N2CCN(C(=O)CCNC(=O)Cn3ccc4ccccc4c3=O)CC2)cc1
inactive
18) CCCn1nnnc1NCc1ccc(OC)cc1
inactive
19) Cc1c(NC(=O)CSCc2ccccc2)cccc1C(=O)O
inactive
20) CCN(c1ccc(NC(=O)COC(=O)CCc2nc3ccccc3n2-c2ccccc2)cc1)C(C)C
inactive
21) CCNC(=O)c1sccc1-n1cccc1
inactive
22) CCN(c1ccc2c(c1)OCO2)S(=O)(=O)c1cc(Br)cc2c1N(C(=O)C1CC1)CC2
inactive
23) C/C(=N/NC(=O)c1ccc(Br)o1)c1ccc(C)o1
active
24) COc1ccc(NC(=O)CN2C(=O)CSC2=O)cc1
inactive
25) CCOCCCNC(=O)c1cc2c(=O)n3ccccc3nc2s1
active
26) COC(=O)C(=Nc1ccccc1)/C(C(=O)C(=O)N(C)c1ccccc1)=C(\O)c1ccc(Cl)cc1
active
27) Cc1cc(C)c(C(=O)CSc2nc(C)cc(=O)[nH]2)c(C)c1
inactive
28) O=C(COc1ccc(Cl)cc1)NCc1nnc(SCC(=O)NCC2CCCO2)o1 (stereo not given)
inactive
29) CCc1c(C)nc(N)n2c(SCC(=O)NC3CCCCC3)nnc12
inactive
30) COc1ccc(C/C(C)=N/NC(=O)c2cc(C)oc2C)cc1
active
31) CN1CCN(c2ccc(NC(=O)c3ccc4c(c3)OCCO4)cc2Cl)CC1
active
32) CCCCCNC(=O)Cc1ccc(OC)cc1
inactive
33) C=CCNC(=S)NNC(=O)COc1c(Cl)cc(Cl)cc1Cl
inactive
34) CC(C)(C)c1cc(C(=O)NN)n(Cc2ccc(Cl)cc2Cl)n1
inactive
35) Cn1c(Cn2nnc3ccccc32)nnc1SCC(=O)c1ccccc1F
inactive
36) CCCCOc1ccc(N(CC(=O)NCC2CCCO2)C(=O)CCC(=O)Nc2cc(C)ccn2)cc1 (stereo not given)
inactive
37) CCCCCC(O)(CCN1CCCCC1)c1ccccc1 (stereo not given)
inactive
38) O=C(CSCc1ccccc1)Nc1ccccc1
active
39) CCC1Oc2ccccc2N(CC(=O)NCCCN2CCN(CC)CC2)C1=O (stereo not given)
inactive
40) COc1cccc(Nc2nnc(SCC(=O)N3CC(C)OC(C)C3)s2)c1 (stereo not given)
inactive
41) COc1cccc(NC(=O)Nc2nnc(N3CCCCC3C)s2)c1 (stereo not given)
active
42) COc1ccc(-c2ccc(CCC(=O)O)n2NC(=O)c2ccc(C(C)(C)C)cc2)cc1
inactive
43) COc1ccccc1N1CCN(S(=O)(=O)CCNC(=O)c2ccc(OC(C)C)cc2)CC1
inactive
44) Cn1c(CSCC(=O)Nc2ccccc2)nnc1SCc1ccccc1
inactive
45) COc1ccc(C(=O)NC(=S)N2CCCCC2c2cccnc2)cc1OC (stereo not given)
inactive
